B1: Far upstream element-binding protein 2, residues 142 to 214; numbered along this chain, Q92945 (parent)
chain: RTSMTEEYRVPDGMVGLIIGRGGEQINKIQQDSGCKVQISPDSGGLPERSVSLTGAPESVQKAKMMLDDIVSR

- Variants of: B1
- Assay Details: abundance fitness (aPCA) (normalised: wild type 0, dead -1); higher = more abundant; growth selection in yeast, the domain comes from the species named
- Test Parameters: Homo sapiens
Classification field: enter Criterion met for abundance fitness values not below -0.2, Criterion not met for values below it.

>>> print(df.to_string())
   mutation_spec  qualitative_label
0           K62A      Criterion met
1           E24N      Criterion met
2           P57E  Criterion not met
3           K28T  Criterion not met
4           P41D      Criterion met
